Consider the following compounds; for each one, report its inhibition at 1 µM.
- system_under_test: UniProtKB O75460
- Sequence (O75460 19-977): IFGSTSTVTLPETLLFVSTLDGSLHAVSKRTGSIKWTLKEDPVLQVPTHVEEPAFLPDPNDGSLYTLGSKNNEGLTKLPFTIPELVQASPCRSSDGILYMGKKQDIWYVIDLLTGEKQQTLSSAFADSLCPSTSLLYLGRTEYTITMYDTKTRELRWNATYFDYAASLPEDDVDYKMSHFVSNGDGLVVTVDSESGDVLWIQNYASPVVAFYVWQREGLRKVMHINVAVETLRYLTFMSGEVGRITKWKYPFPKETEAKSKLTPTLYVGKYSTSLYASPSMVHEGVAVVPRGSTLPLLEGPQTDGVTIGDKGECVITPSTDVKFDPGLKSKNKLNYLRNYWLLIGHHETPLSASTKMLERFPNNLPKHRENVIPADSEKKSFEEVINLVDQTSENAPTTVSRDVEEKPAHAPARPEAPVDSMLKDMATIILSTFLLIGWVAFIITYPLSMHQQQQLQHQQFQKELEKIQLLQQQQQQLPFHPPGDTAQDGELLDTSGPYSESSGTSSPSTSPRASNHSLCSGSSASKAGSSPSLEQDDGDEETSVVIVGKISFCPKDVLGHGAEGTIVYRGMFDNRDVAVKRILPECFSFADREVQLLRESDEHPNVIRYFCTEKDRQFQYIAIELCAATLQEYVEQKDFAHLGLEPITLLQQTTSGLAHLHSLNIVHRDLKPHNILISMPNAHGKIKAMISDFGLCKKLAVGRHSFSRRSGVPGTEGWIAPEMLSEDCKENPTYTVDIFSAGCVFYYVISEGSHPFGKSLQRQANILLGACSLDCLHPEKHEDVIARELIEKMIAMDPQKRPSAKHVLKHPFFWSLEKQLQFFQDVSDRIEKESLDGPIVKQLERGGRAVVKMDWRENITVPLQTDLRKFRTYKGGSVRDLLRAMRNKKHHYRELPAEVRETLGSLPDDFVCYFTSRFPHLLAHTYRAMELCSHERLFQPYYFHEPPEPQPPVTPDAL
- experimental_details: KINOMEscan competition binding
- conditions: read-out: %Inh ERN1
Number first, unit second.

Batch of 5 compounds: report inhibition at 1 µM for each.
1. COc1cccc(OC)c1C(=O)Nc1cccc(-c2nn3ccccc3c2-c2ccnc(Nc3cccc(F)c3)n2)c1 [UNC10225310A]
2. O=c1cc(N2CCOCC2)nc2n(Cc3cccc(Cl)c3Cl)c(C3CC3)nn12 [UNC10225469A]
3. Cc1ccc(NC(=O)Nc2cccc(C(F)(F)F)c2)cc1 [UNC10225187A]
4. Cn1cc(-c2cnc(N)c3c(-c4ccc5c(c4)CCN5C(=O)Cc4ccccc4)csc23)cn1 [UNC10225012A]
5. CS(=O)(=O)Cc1ccc(Nc2nccc(-c3c(-c4cccc(NC(=O)C5CCCCC5)c4)nn4ncccc34)n2)cc1 [UNC10225159A]

Data returned:
10%
0%
0%
28%
33%
